# assay-method-text: pH range solubility in biorelevant media
# Assay type: physicochemical
# experimental-parameters: FEDGAS biorelevant medium, pH 6, fassgf or other biorelevant, thermodynamic from solid, pH 6.0 (FEDGAS); early stage of stomach emptying; read-out: Solubility
endpoint-label: solubility (µg/mL)
Unit µg/mL implied. Number only.

query: For CN1CC[C@@H](c2c(O)cc(O)c3c(=O)cc(-c4ccc(C(F)(F)F)cc4Cl)oc23)[C@@H]1CO.O=C(O)CC(=O)O [Voruciclib Malonate] , write its solubility.
result: 2880

###

# assay-method-text: pKa of voruciclib malonate
# Assay type: physicochemical
# experimental-parameters: third value listed
endpoint-label: pKa
The reply should be a number, written without any unit.

query: Output pKa of CN1CC[C@@H](c2c(O)cc(O)c3c(=O)cc(-c4ccc(C(F)(F)F)cc4Cl)oc23)[C@@H]1CO.O=C(O)CC(=O)O [Voruciclib Malonate]
result: 12.1
